# assay_comment: Components of the Cytosolic LPS Sensing Pathway: Gene Identification via Genome-wide siRNA Screen;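 further: robust z of the log signal after scaling to non-targeting control siRNA wells of the plate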
# setup_conditions: RAW264.7 macrophages, IL-1a HTRF, actives lie on both sides, screened at 100 nM (by protocol), cells primed 5 h with Pam3CSK4 first
Out of some 53,000 sequences screened, about 3,700 (7%) were called active. The full list was thinned out, with actives kept by preference.
We begin with a simple list: items and their reported z-score.
Keep it simple and answer with nothing but the number.

input_sequence	observation_type	number
GCUUUAUGAGUUCACGGAGTT against Prkab2	z-score	1.02

## Task GET /values?readout=z-score&item= CCCAGCAUGGAUCAAGCACTT against Krt73
## Result 0.864

## Task What does the record list as z-score for GGAAUUUCAAAGAGACAAATT against Cyfip1 ?
## Result -0.423

## Task What measured z-score goes with GGUGCAACACUCUCUAUUUTT against Afap1l1 ?
## Result 0.963

## Task Could you tell me which z-score is on file for GGUUGUUUUGGAAUUGAUATT against Smu1 ?
## Result -2.82

* * *

Each record here notes measured z-score.
# assay_comment: Components of the Cytosolic LPS Sensing Pathway: Gene Identification via Genome-wide siRNA Screen;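 further: robust z of the log signal after scaling to non-targeting control siRNA wells of the plate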
# setup_conditions: RAW264.7 macrophages, IL-1a HTRF, actives lie on both sides, screened at 100 nM (by protocol), cells primed 5 h with Pam3CSK4 first
Out of some 53,000 sequences screened, about 3,700 (7%) were called active. The sample as a whole holds a higher share of actives than the screen did.

input_sequence	z-score
GGUCUGAAGAAGAUUCUGGTT against Unc45a	0.33 (inactive)
GGACAUUGCUAACUGCCUUTT against Snx16	2.37 (active)
CGGCAUGAGCAGUUUAUAUTT against Col19a1	-1.04 (inactive)

## Task Give the measured z-score of GGCAUCAAGCAAUUCACUCTT against Zfp455 .
## Result 1.14 (inactive)

## Task Fill blank: measured z-score of the sequence GGAUUUCUACCAGCUCGUGTT against Pop5 is ____.
## Result 1.62 (inactive)

## Task Given the sequence CCGGCUUAUGCUCAACUUCTT against Bpifb1 , what is its reported z-score?
## Result 0.29 (inactive)

* * *

# assay_comment: Components of the Cytosolic LPS Sensing Pathway: Gene Identification via Genome-wide siRNA Screen;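 further: robust z of the log signal after scaling to non-targeting control siRNA wells of the plate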
# setup_conditions: RAW264.7 macrophages, IL-1a HTRF, actives lie on both sides, screened at 100 nM (by protocol), cells primed 5 h with Pam3CSK4 first
Screen size: about 53,000 sequences; about 3,700 (7%) were called active.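 Rule for the calls: active = gene knockdowns whose robust z-score for IL-1 alpha signal is at least 2 or at most -2, so actives lie on both sides; inactive = the rest.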 Many of the other results were omitted from the sample, so actives are more common in it than they were.
Form entry, call: pick from active, inactive

input_sequence	qualitative_label
GGAGCUCGCCAAAAGGAAGTT against Cep19	inactive

## Task What did the test return for GCUUGUGAGUGGAACUUUCTT against Mcm6 ?
## Result inactive

## Task Hi team, can someone confirm the assay call for GGAGGAAAAGGCAAUCGUUTT against Mtg2 ?
## Result inactive

## Task For this sequence, state the assay outcome: GGUUAAAAGCCAUGUGUAATT against Pggt1b
## Result inactive

## Task Would you mind telling me which call this test gave GGGAACUUUAGCUUAAAUUTT against Lypd6 ?
## Result inactive

## Task What was the test verdict on CGACCAGUCACAAUGGUUATT against Edil3 ?
## Result inactive
